A492 nm by EIA (mA) for assorted sequences
- Test system: antibodies to HCV
- Experiment notes: NS-1 peptide ELISA, Panel II (asymptomatic individuals, mainland China and Taiwan)
- Type: binding, human
- Test parameters: Panel II sample CH-5

Biopolymer sequence: QGWGPISYANGSGPDQRPYCWHYPPKPCGIVPAKSVCGPVYC [231C]
A492 nm by EIA (mA): 311
--
Biopolymer sequence: PPLGNWFGCTWMNSTGFTKVCGAPPC [232A]
A492 nm by EIA (mA): 621
--
Biopolymer sequence: EAACNWTRGERCDLEDRDRSELS [234A]
A492 nm by EIA (mA): 206
--
Biopolymer sequence: LHCPTDCFRKHPDATYSRCGSGPWITPRCLVDYPYRLWHWPC [233C]
A492 nm by EIA (mA): 114

---

- Test system: antibodies to HCV
- Experiment notes: Peptide ELISA for relative immunoreactivity, 8 member HCV serum panel (Panel I)
- Assay type: binding, human
- Test parameters: NS-3 peptides (Tables 4B-4D), relative to pep3 (279A)
Quantity kind: % Relative Immunoreactivity (%)

Biopolymer sequence: YGKFLADGGCSGGAYDIIICDECHSTDAT [262A]
Unit string: %
Assay value: 6.9
--
Biopolymer sequence: SVTVPHPNIEEVALSTTGEIPFYGKAIPLEVIKGGRHLIFCHSKKKCDEL [261C]
Unit string: %
Assay value: 3.2
--
Biopolymer sequence: PNIRTGVRTITTGSPITYSTYGKFLADGGCSGGAYDIIICDECHSTDAT [262D]
Unit string: %
Assay value: 9.3
--
Biopolymer sequence: RTITTGSPITYSTYGKFLADGGCSGGAYDIIICDECHSTDATSILGIGTVLDQAETAG [279E]
Unit string: %
Assay value: 2.2
--
Biopolymer sequence: TTGSPITYSTYGKFLADGGCSGGAYDIIICDECHSTDAT [262B]
Unit string: %
Assay value: 4.7
--
Biopolymer sequence: GCSGGAYDIIICDECHSTDATSILGIGTVLDQAETAG [279A]
Unit string: %
Assay value: 100.0
--
Biopolymer sequence: AYMSKAHGIDPNIRTGVRTITTGSPITYSTYGKFLADGGCSGGAYDIIICDECHSTDAT [262E]
Unit string: %
Assay value: 3.6
--
Biopolymer sequence: EVALSTTGEIPFYGKAIPLEVIKGGRHLIFCHSKKKCDEL [261B]
Unit string: %
Assay value: 3.1
--
Biopolymer sequence: RTITTGSPITYSTYGKFLADGGCSGGAYDIIICDECHS [275A]
Unit string: %
Assay value: 18.2
--
Biopolymer sequence: FLADGGCSGGAYDIIICDECHSTDATSILGIGTVLDQAETAG [279B]
Unit string: %
Assay value: 3
--
Biopolymer sequence: TVLDQAETAGARLVVLATATPPGSVTVPHPNIEEVAL [274A]
Unit string: %
Assay value: 2.0

---

A492 nm by EIA (mA) for assorted sequences
- System: antibodies to HCV
- Experiment notes: NS-1 peptide ELISA, Panel II (asymptomatic individuals, mainland China and Taiwan)
- Format: binding, human
- Test parameters: Panel II sample CH-2

Biopolymer sequence: PPLGNWFGCTWMNSTGFTKVCGAPPC [232A]
A492 nm by EIA (mA): 261

Biopolymer sequence: QGWGPISYANGSGPDQRPYCWHYPPKPCGIVPAKSVCGPVYC [231C]
A492 nm by EIA (mA): 2472

Biopolymer sequence: LHCPTDCFRKHPDATYSRCGSGPWITPRCLVDYPYRLWHWPC [233C]
A492 nm by EIA (mA): 174

Biopolymer sequence: EAACNWTRGERCDLEDRDRSELS [234A]
A492 nm by EIA (mA): 232
